- Tested on: NCI-H2228
- Run Description: relative viability (nuclei count vs DMSO), 5 days (fraction); higher = more cells survive
- Condition: first compound 158.11 µM
Parameter: relative viability

molecule="O=C(O)CCCCC(CCSCc1ccccc1)SCc1ccccc1 (stereo not drawn) [CPI-613] + COc1cccc2cc(-c3nc([C@H]4CC[C@H](C(=O)O)CC4)n4ncnc(N)c34)[nH]c12 [OSI-027] (partner 0.5 µM)" observed_value=0.192
molecule="O=C(O)CCCCC(CCSCc1ccccc1)SCc1ccccc1 (stereo not drawn) [CPI-613] + Nc1nc2[nH]cc(CCc3ccc(C(=O)N[C@@H](CCC(=O)O)C(=O)O)cc3)c2c(=O)[nH]1 [Pemetrexed] (partner 0.2 µM)" observed_value=0.272

Prompt: What relative viability value was documented for this molecule, O=C(O)CCCCC(CCSCc1ccccc1)SCc1ccccc1 (stereo not drawn) [CPI-613] + C[C@@H](Oc1cc(-c2cnn(C3CCNCC3)c2)cnc1N)c1c(Cl)ccc(F)c1Cl [Crizotinib] (partner 1 µM) ?
Completion: 0.203

====

- System: NCI-H2342
- Run Description: relative viability (nuclei count vs DMSO), 5 days (fraction); higher = more cells survive
- Condition: first compound 0.08 µM
Below, each entry is listed with its recorded relative viability.
Please give only the number in your answer, with no unit.

Prompt: What relative viability value was documented for this compound, O=c1[nH]c2ccccc2n1C1CCN(CCCC(c2ccc(F)cc2)c2ccc(F)cc2)CC1 [Pimozide] + CC(=O)Nc1cccc(-n2c(=O)n(C3CC3)c(=O)c3c(Nc4ccc(I)cc4F)n(C)c(=O)c(C)c32)c1 [Trametinib] (partner 0.02 µM) ?
Completion: 0.661

Prompt: Here is the next compound: Cc1cnc(-c2cnc(NCCNc3ccc(C#N)cn3)nc2-c2ccc(Cl)cc2Cl)[nH]1 + NC(=O)Nc1cc(-c2cccc(F)c2)sc1C(=O)N[C@H]1CCCNC1 [AZD7762] (partner 0.2 µM)
Completion: 0.516

Prompt: Here is the next compound: O=c1[nH]c2ccccc2n1C1CCN(CCCC(c2ccc(F)cc2)c2ccc(F)cc2)CC1 [Pimozide] + Cc1nc(Nc2ncc(C(=O)Nc3c(C)cccc3Cl)s2)cc(N2CCN(CCO)CC2)n1 [Dasatinib] (partner 0.075 µM)
Completion: 0.33

Prompt: Here is the next compound: O=c1[nH]c2ccccc2n1C1CCN(CCCC(c2ccc(F)cc2)c2ccc(F)cc2)CC1 [Pimozide] + Cc1cc(Nc2cc(N3CCN(C)CC3)nc(Sc3ccc(NC(=O)C4CC4)cc3)n2)n[nH]1 [Tozasertib] (partner 0.1 µM)
Completion: 0.51

====

Below, each entry is listed with its recorded relative viability.
- Test system: NCI-H322M
- Run Description: relative viability (nuclei count vs DMSO), 5 days (fraction); higher = more cells survive
- Condition: first compound 0.1581 µM
Please give only the number in your answer, with no unit.

Prompt: What relative viability value was documented for this compound, COc1cc2nccc(Oc3ccc(NC(=O)Nc4cc(C)on4)c(Cl)c3)c2cc1OC [Tivozanib] + CC(C)C[C@H](NC(=O)[C@H](Cc1ccccc1)NC(=O)c1cnccn1)B(O)O [Bortezomib] (partner 0.002 µM) ?
Completion: 1.05

Prompt: Here is the next compound: Nc1ccn([C@@H]2O[C@H](CO)[C@@H](O)[C@@H]2O)c(=O)n1 [Cytarabine] + CC(=O)c1c(C)c2cnc(Nc3ccc(N4CCNCC4)cn3)nc2n(C2CCCC2)c1=O [Palbociclib] (partner 0.5 µM)
Completion: 0.385

Prompt: Here is the next compound: Nc1ccn([C@@H]2O[C@H](CO)[C@@H](O)[C@@H]2O)c(=O)n1 [Cytarabine] + CC(=O)Nc1cccc(-n2c(=O)n(C3CC3)c(=O)c3c(Nc4ccc(I)cc4F)n(C)c(=O)c(C)c32)c1 [Trametinib] (partner 0.02 µM)
Completion: 0.429

Prompt: Here is the next compound: Nc1ccn([C@@H]2O[C@H](CO)[C@@H](O)[C@@H]2O)c(=O)n1 [Cytarabine] + COc1cccc2cc(-c3nc([C@H]4CC[C@H](C(=O)O)CC4)n4ncnc(N)c34)[nH]c12 [OSI-027] (partner 0.5 µM)
Completion: 0.377

These data points were gathered from the supplement of paper PMC10307832.
